These measurements were taken from paper PMC7000521.

- System: rat primary cortical cultures
- assay name: MEA recordings of spontaneous neuronal network activity
- Type: cell-based
- test conditions: Rattus norvegicus; prolonged exposure 4.5 h; value [CI]; read-out: Neuronal activity IC50, mean burst rate (MBR), prolonged
- Method: Rat pups born of timed-pregnant Wistar rats (Envigo, Horst, Netherlands) were sacrificed on postnatal day 0–1 to prepare cortical cultures grown on MEA plates as described previously ([Zwartsen et al., 2018], [2019]). […] Microelectrode array recordings were performed as described in [Zwartsen et al. (2019)]. In short, neuronal activity was measured using a Maestro 768-channel amplifier (Axion BioSystems Inc., Atlanta, GA, United States). […]
reported property: pIC50
Keep it numeric: pIC50 is minus log10 of the concentration in mol/L.

CNC(C)C(=O)c1ccc(C)cc1 (centres unmarked): 3.83

GET /value?item= CCCC(NC)C(=O)c1ccccc1 (centres unmarked) &field=pIC50 returns 4.55

---

- study system: UniProt P31645
- Sequence (P31645 whole entry): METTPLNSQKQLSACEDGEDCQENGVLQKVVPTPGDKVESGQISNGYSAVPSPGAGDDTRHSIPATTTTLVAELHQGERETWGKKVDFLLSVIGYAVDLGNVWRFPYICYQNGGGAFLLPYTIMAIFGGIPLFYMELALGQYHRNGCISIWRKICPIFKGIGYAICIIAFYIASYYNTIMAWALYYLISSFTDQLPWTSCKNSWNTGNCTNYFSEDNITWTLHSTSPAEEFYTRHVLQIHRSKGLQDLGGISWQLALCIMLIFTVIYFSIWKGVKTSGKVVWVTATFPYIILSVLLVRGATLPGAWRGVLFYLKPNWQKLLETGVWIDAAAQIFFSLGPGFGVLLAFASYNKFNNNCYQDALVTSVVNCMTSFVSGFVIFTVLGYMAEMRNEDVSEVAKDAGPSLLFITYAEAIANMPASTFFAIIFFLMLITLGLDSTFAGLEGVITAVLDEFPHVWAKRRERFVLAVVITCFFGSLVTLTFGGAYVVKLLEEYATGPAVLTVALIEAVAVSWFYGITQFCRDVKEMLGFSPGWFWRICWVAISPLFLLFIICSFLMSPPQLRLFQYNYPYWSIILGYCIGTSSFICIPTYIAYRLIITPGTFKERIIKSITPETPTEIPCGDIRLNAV
- assay name: Monoamine uptake assay (fluorescent substrate), hSERT
Recorded pIC50, one value per entry.
Units for pIC50: none; it is -log10 of a concentration expressed in mol/L.

Noted for CCCC(NC)C(=O)c1ccccc1 (centres unmarked) [Pentedrone, 2-(methylamino)-1-phenyl pentan-1-one] : its pIC50 reads 4.80

Form: compound = CCCC(C(=O)c1ccc2c(c1)OCO2)N1CCCC1 (centres unmarked) [MDPV] ; pIC50 = 5.35

---

// reported Brain partitioning factor (BPF) per item
- assay name: Brain partitioning factor (BPF)
- test conditions: brain concentration divided by blood/serum/plasma concentration from human post mortem reports or animal studies (rat/mice)

Check out these entries, answers already filled in.
CCCC(NC)C(=O)c1ccccc1 (stereo not drawn) [Pentedrone, 2-(methylamino)-1-phenyl pentan-1-one]: 1.6^8
CNC(C)C(=O)c1ccc(C)cc1 (stereo not drawn) [4-MMC]: 0.7–6.2^1,^–2,^3
CCCC(C(=O)c1ccc2c(c1)OCO2)N1CCCC1 (stereo not drawn) [MDPV]: 0.8–4.4^4,11,12
CCCC(C(=O)c1ccccc1)N1CCCC1 (stereo not drawn) [α-PVP, α-pyrrolidinovalerophenone]: 0.1–1.8^4,8,9,10
CNC(C)C(=O)c1ccc2c(c1)OCO2 (stereo not drawn) [Methylone]: 1.4–4.5^5,^–6,^7

Notebook: CCNC(C)C(=O)c1ccc(C)cc1 (stereo not drawn) [4-MEC] , Brain partitioning factor (BPF) read as 1.5–6.2^4

---

- Tested on: rat primary cortical cultures
- assay name: MEA recordings of spontaneous neuronal network activity
- Format: cell-based
- test conditions: 19 h washout, 24 h after start of exposure; value [CI]; read-out: Neuronal activity IC50, mean burst rate (MBR), recovery
In this section, each of the molecules is paired with its reported IC50.

CCNC(C)C(=O)c1ccc(C)cc1 (centres unmarked): > 1 mM

Recorded IC50 (molecule CNC(C)C(=O)c1cccc(C)c1 (centres unmarked) ): > 1 mM

---

- assay name: Estimated human brain concentrations and comparison with IC50 values
- test conditions: recreational human blood/serum/plasma concentration multiplied with BPF
Catalogue of compounds with associated Estimated human (brain) concentration

CNC(C)C(=O)c1ccc(C)cc1 (stereo not shown) [4-MMC]: 0.04 to 37 µM
CCCC(C(=O)c1ccccc1)N1CCCC1 (stereo not drawn) [α-PVP, α-pyrrolidinovalerophenone]: 0.001 to 5.0 µM
CCCC(NC)C(=O)c1ccccc1 (stereo not shown) [Pentedrone, 2-(methylamino)-1-phenyl pentan-1-one]: 0.06 to 3.0 µM

Measured Estimated human (brain) concentration, CNC(C)C(=O)c1ccc2c(c1)OCO2 (stereo not shown) [Methylone] : 0.01 to 81 µM

According to the records, this compound CCNC(C)C(=O)c1ccc(C)cc1 (stereo not shown) [4-MEC] displays Estimated human (brain) concentration of 0.2 to 29 µM

Item: CNC(C)C(=O)c1cccc(C)c1 (stereo not shown) [3-MMC] | Estimated human (brain) concentration: 0.005 to 9.0 µM

// Estimated human (brain) concentration lookup, compound = CCCC(C(=O)c1ccc2c(c1)OCO2)N1CCCC1 (stereo not shown) [MDPV] , result: 0.02 to 30 µM

---

Below, each of the molecules is paired with its reported log10 IC50 value.
- study system: hDAT (Homo sapiens)
- Construct: expressed in transfected cells
- Sequence (Q01959 whole entry): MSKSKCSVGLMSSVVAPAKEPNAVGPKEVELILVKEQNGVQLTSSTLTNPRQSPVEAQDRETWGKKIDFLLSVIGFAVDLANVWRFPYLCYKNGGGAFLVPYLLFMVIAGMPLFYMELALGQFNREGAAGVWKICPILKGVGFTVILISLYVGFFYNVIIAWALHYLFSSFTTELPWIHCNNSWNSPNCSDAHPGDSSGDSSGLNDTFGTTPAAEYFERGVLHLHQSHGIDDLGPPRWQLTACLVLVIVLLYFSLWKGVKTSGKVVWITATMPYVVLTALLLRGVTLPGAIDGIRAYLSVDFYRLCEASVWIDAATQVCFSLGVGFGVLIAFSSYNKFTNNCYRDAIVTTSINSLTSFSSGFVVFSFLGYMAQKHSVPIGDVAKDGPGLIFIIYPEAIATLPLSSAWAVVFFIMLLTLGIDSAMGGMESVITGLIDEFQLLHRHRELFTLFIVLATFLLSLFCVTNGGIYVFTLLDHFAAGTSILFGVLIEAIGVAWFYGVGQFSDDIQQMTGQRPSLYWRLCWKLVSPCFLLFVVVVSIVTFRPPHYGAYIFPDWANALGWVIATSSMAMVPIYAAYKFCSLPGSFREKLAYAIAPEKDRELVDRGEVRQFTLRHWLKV
- assay name: Monoamine uptake assay (fluorescent substrate), hDAT
- Type: cell-based
Answers are given as log10 of IC50 in nM.

CNC(C)C(=O)c1cccc(C)c1 (stereo not drawn) [3-MMC]: 3.40
CCNC(C)C(=O)c1ccc(C)cc1 (stereo not drawn) [4-MEC]: 3.20
CCCC(NC)C(=O)c1ccccc1 (stereo not drawn) [Pentedrone, 2-(methylamino)-1-phenyl pentan-1-one]: 2.60
CCCC(C(=O)c1ccc2c(c1)OCO2)N1CCCC1 (stereo not drawn) [MDPV]: 1.85

molecule CNC(C)C(=O)c1ccc(C)cc1 (stereo not drawn) [4-MMC] , log10 IC50 observed: 3.15

Just so you know, measured log10 IC50 for CNC(C)C(=O)c1ccc2c(c1)OCO2 (stereo not drawn) [Methylone] came out at 3.30

---

- study system: hDAT (Homo sapiens)
- Construct: expressed in transfected cells
- assay name: Monoamine uptake assay (fluorescent substrate), hDAT
- Assay type: cell-based
- test conditions: HEK 293 cells, 37°C, uptake at 12 min after drug exposure; value [CI]; read-out: Transporter inhibition IC50, hDAT
reported property: pIC50
Formally, pIC50 is defined as -log10 of the concentration c, with c in mol/L.

pIC50 for hDAT (Homo sapiens) with input CCNC(C)C(=O)c1ccc(C)cc1 (stereo not shown) equals 5.77

---

- System: rat primary cortical cultures
- assay name: MEA recordings of spontaneous neuronal network activity
- Type: cell-based
- test conditions: acute exposure 30 min; value [CI]; read-out: Neuronal activity IC50, mean network burst rate (MNBR), acute
reported property: pIC50
Please note pIC50 is a logarithmic value: minus log10 of concentration in mol/L. Answer with that number alone.

CNC(C)C(=O)c1cccc(C)c1 (centres unmarked): 4.24

Reported pIC50 ( CCNC(C)C(=O)c1ccc(C)cc1 (centres unmarked) ) = 4.10
